# key: entry, value: growth
System: MDA-MB-435 melanoma
Test: NCI-60 one-dose screen, 48 h (100 = growth as untreated, 0 = no growth, -100 = all killed)
Conditions: 10 µM unless noted
About 83,000 compounds went through this panel and 20% of them were active in at least one assay; those are over-represented in the sample as a whole.
Give just the number in %; leave the unit off.

O=C(NNc1nc2cc(F)c(F)cc2n2cccc12)c1ccncn1 = 33

**Query** Form: Entry = Cc1nn(-c2ccccc2)c2nc(CCl)[nH]c(=O)c12 | System = MDA-MB-435 melanoma | growth = ____
**Result** 97.9

**Query** Now try CCN1C(=O)N(CC)C2SC(N/N=C/c3ccccc3F)=NC21 (centres undefined) .
**Result** -53.5

**Query** Now try CCN1C(=O)N(CC)C2SC(N/N=C/c3ccccc3)=NC21 (centres undefined) .
**Result** -10.2

**Query** Now try Cc1ccc(C2CC(c3ccc(Nc4nc(NCCO)nc(Nc5ccc(Cl)cc5)n4)cc3)=Nc3c(N)nc(N)nc3N2)cc1 (centres undefined) .
**Result** -93.1

**Query** Now try C/C(=C(/c1ccc(O)cc1)c1ccc(OCCN2CCCCCC2)cc1)c1ccccc1 .
**Result** 52.4

**Query** Now try O=C1c2c(c3c4cccnc4[nH]c3c3ccc4ccccc4c23)C(=O)N1CCN1CCNCC1 .
**Result** 89.9

**Query** Now try C=CCn1c(SCC(=O)Nc2cccc(C(=O)/C=C/c3ccccc3)c2)nc2ccccc2c1=O .
**Result** 82.9

**Query** Now try COc1ccc(NC(=O)[C@H](C)N)cc1C(=O)Nc1cccc(-c2cc(=O)c3c(OC)c(OC)c(OC)cc3o2)c1 .
**Result** 82.1

**Query** Now try CC(C)Sc1nc(NC2CC2)c(C#N)c(-c2ccccc2)n1 .
**Result** 88.1

**Query** Now try COc1ccc(-c2nc(SCC(C)C)nc(N/N=C\c3cccc([N+](=O)[O-])c3)c2C#N)cc1 .
**Result** 67.3

----------
# key: entry, value: growth
Tested on: LOX IMVI melanoma
Test: NCI-60 one-dose screen, 48 h (100 = growth as untreated, 0 = no growth, -100 = all killed)
Details: 10 µM unless noted
About 83,000 compounds went through this panel and 20% of them were active in at least one assay; those are over-represented in the sample as a whole. Active and inactive are the calls of the source. The calls were made as follows: active = growth percent below 10; inactive = the rest.

CN(c1ccc(Cl)cc1)S(=O)(=O)c1ccc(-c2cnc(C3CC3)o2)cc1 = 12.9% (inactive)
O=c1oc2ccc(-c3ccc(F)cc3F)cc2c(=O)n1-c1cccc(C(F)(F)F)c1 = 0.939% (active)

**Query** Consider the compound CC(C)(C)n1nnnc1C(Nc1nccs1)c1cc2cccc3ccc4cccc1c4c32 (configuration not stated) and give its measured growth.
**Result** 96.3% (inactive)

**Query** Now try CC[C@@](C)(NC(=O)C(C)(C)NC(=O)[C@@H](NC(=O)[C@@H]1CCCN1C(=O)C(C)(C)NC(=O)[C@H](CC(C)C)NC(=O)CNC(=O)C(C)(C)NC(=O)[C@@H](NC(=O)C(C)(C)NC(=O)[C@H](CCC(N)=O)NC(=O)[C@H](C)NC(=O)C(C)(C)NC(=O)[C@H](C)NC(=O)C(C)(C)NC(=O)[C@@H]1CCCN1C(=O)C(C)(C)NC(C)=O)C(C)C)C(C)C)C(=O)N[C@@H](CCC(N)=O)C(=O)N[C@@H](CCC(N)=O)C(=O)N[C@H](CO)Cc1ccccc1 .
**Result** 4.55% [4.25 µM] (active)

**Query** Now try COc1ccc(Cn2cc3c(c2-c2cc(OC)c(OC)c(OC)c2)CCCc2cnoc2-3)cc1 .
**Result** 35.8% (inactive)

**Query** Now try CC(C)(C)OC(=O)N1CCN(S(=O)(=O)/N=C2\NC(=O)NC2=C(Cl)Cl)CC1 .
**Result** 64.3% (inactive)

**Query** Now try Cn1cc(-c2nn3cc(-c4cccnc4)nc3s2)c2ccccc21 .
**Result** 37.9% (inactive)
